Experiment: Antiproliferative activity against human HTB-54 cells assessed as reduction in cell growth at 10 uM incubated for 48 hrs by MTT assay
Assay type: functional
Design: scale not given: the % may be the effect or the level left
Returns: string. Value is 1 if measured Activity is below 60%, and -1 if it is greater than or equal to it.

Some solved entries appear below for comparison.
O=C(O)c1ccccc1C(=O)Nc1ccc([Se][Se]c2ccc(NC(=O)c3ccccc3C(=O)O)cc2)cc1 -1
N#C[Se]c1ccc(N)cc1 1
O=C1c2ccccc2C(=O)N1c1ccc([Se][Se]c2ccc(N3C(=O)c4ccccc4C3=O)cc2)cc1 1

Dear colleague, could you confirm whether Activity of N#C[Se]c1ccc(NC(=O)c2ccccc2-c2ccccc2C(=O)O)cc1 falls below 60%? Thanks.
-1
